# Assay overview: Study 2
# Assay type: in vivo, human
# Cond: human, plasma, oral, 100 mg, Plasma islatravir Cmax, Study 2; 100 mg once weekly; Week 3; LS mean (95% CI)
Value kind: Cmax (nM)
Report as a plain number; the unit nM is understood.

Query string: Fill in the blank: the reported Cmax of C#C[C@]1(CO)O[C@@H](n2cnc3c(N)nc(F)nc32)C[C@@H]1O [islatravir, 4'‐Ethynyl‐2‐fluoro‐2'‐deoxyadenosine] is ____.
Result string: 1850

---

# Assay overview: Study 2
# Type: in vivo, human
# Cond: human, plasma, oral, 10 mg
Value kind: half-life (h)
Report as a plain number; the unit h is understood.

Query string: Fill in the blank: the reported half-life of C#C[C@]1(CO)O[C@@H](n2cnc3c(N)nc(F)nc32)C[C@@H]1O [islatravir, 4'‐Ethynyl‐2‐fluoro‐2'‐deoxyadenosine] is ____.
Result string: 16.5

---

# Assay overview: Study 2
# Type: in vivo, human
# Cond: human, plasma, oral, 100 mg, Plasma islatravir AUC0–168 h, Study 2; 100 mg once weekly; Week 1; LS mean (95% CI)
Value kind: AUC(0-t)
Remember to follow the number with its unit.

Query string: Fill in the blank: the reported AUC(0-t) of C#C[C@]1(CO)O[C@@H](n2cnc3c(N)nc(F)nc32)C[C@@H]1O [islatravir, 4'‐Ethynyl‐2‐fluoro‐2'‐deoxyadenosine] is ____.
Result string: 9.62 µM·h

---

# Assay type: in vivo, human
# Cond: human, PBMCs, oral, 100 mg
Value kind: Tmax (h)
Report as a plain number; the unit h is understood.

Query string: Fill in the blank: the reported Tmax of "C#C[C@]1(COP(=O)(O)OP(=O)(O)OP(=O)(O)O)O[C@@H](n2cnc3c(N)nc(F)nc32)C[C@@H]1O" is ____.
Result string: 18

---

# Assay overview: Study 2
# Assay type: in vivo, human
# Cond: human, plasma, oral, 100 mg, Plasma islatravir AUC0–168 h, Study 2; 100 mg once weekly; Week 3; LS mean (95% CI)
Value kind: AUC(0-t) (µM·h)
Report as a plain number; the unit µM·h is understood.

Query string: Fill in the blank: the reported AUC(0-t) of "C#C[C@]1(CO)O[C@@H](n2cnc3c(N)nc(F)nc32)C[C@@H]1O" is ____.
Result string: 12

---

# Type: in vivo, human
# Cond: human, PBMCs, oral, 30 mg
Value kind: Tmax (h)
Report as a plain number; the unit h is understood.

Query string: Fill in the blank: the reported Tmax of C#C[C@]1(COP(=O)(O)OP(=O)(O)OP(=O)(O)O)O[C@@H](n2cnc3c(N)nc(F)nc32)C[C@@H]1O [islatravir‐TP] is ____.
Result string: 9

---

# Format: in vivo, human
# Cond: human, PBMCs, oral, 10 mg
Value kind: Tmax (h)
Report as a plain number; the unit h is understood.

Query string: Fill in the blank: the reported Tmax of "C#C[C@]1(COP(=O)(O)OP(=O)(O)OP(=O)(O)O)O[C@@H](n2cnc3c(N)nc(F)nc32)C[C@@H]1O" is ____.
Result string: 48

---

# Assay overview: Study 2
# Format: in vivo, human
# Cond: human, plasma, oral, 100 mg
Value kind: half-life (h)
Report as a plain number; the unit h is understood.

Query string: Fill in the blank: the reported half-life of "C#C[C@]1(CO)O[C@@H](n2cnc3c(N)nc(F)nc32)C[C@@H]1O" is ____.
Result string: 87.1
